# Lookup of reported IC50 keyed by entry
# experimental-target: hKMO (Homo sapiens, UniProt O15229)
# Construct: purchased Origene
# Sequence (O15229 whole entry): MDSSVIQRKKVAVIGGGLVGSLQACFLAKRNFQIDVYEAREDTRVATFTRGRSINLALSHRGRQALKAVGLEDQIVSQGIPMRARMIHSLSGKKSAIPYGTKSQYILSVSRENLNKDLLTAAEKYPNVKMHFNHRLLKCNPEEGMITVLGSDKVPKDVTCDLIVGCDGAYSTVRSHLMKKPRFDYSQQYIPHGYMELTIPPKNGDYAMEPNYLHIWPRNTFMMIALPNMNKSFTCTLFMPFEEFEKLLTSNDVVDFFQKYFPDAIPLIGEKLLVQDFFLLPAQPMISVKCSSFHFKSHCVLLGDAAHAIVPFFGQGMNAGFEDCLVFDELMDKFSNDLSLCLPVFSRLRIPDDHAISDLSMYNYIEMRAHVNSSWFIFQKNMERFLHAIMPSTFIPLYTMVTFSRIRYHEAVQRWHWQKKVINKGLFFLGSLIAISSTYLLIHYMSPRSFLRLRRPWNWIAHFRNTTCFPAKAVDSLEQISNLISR
# experiment: Human KMO enzyme (cell-free) assay, NADPH consumption by absorbance
# Type: biochemical
# experimental-context: cell-free enzyme assay, high kynurenine; read-out: Human KMO IC50
property-name: IC50 (µM)

[[record]]
line_notation = "Cc1cnn(-c2cccc(C(=O)O)c2)c1-c1ccc(Cl)c(F)c1"
property_name = "IC50"
meas_value = 0.0071

[[record]]
line_notation = "Cc1cnn(-c2cccc(C(=O)O)c2)c1-c1ccccc1"
property_name = "IC50"
meas_value = 0.16

[[record]]
line_notation = "COc1ccc2c(c1)CN(c1nc(C(=O)N(C)c3cc(Cl)c(F)cc3C(=O)O)c(Cl)s1)C2"
property_name = "IC50"
meas_value = 0.014

[[record]]
line_notation = "Cc1cnn(-c2ccc(OCc3ccccc3)c(C(=O)O)c2)c1-c1ccc(Cl)c(F)c1"
property_name = "IC50"
meas_value = 0.0038


----------
# experimental-target: hKMO (Homo sapiens)
# Construct: purchased Origene
# experiment: Human KMO enzyme (cell-free) assay, NADPH consumption by absorbance
# Assay type: biochemical
# experimental-context: conc 0.3 μM, duplicates
# Lookup of reported inhibition rate, Hs-KMO cell-free assay (Figure 1A source data) keyed by entry
property-name: inhibition rate, Hs-KMO cell-free assay (Figure 1A source data)

[[record]]
line_notation = "Cc1cnn(-c2ccc(OCc3ccccc3)c(C(=O)O)c2)c1-c1ccc(Cl)c(F)c1"
meas_value = "101.967%"

[[record]]
line_notation = "Cc1cnn(-c2cccc(C(=O)O)c2)c1-c1ccccc1"
meas_value = "65.813%"

[[record]]
line_notation = "COc1ccc2c(c1)CN(c1nc(C(=O)N(C)c3cc(Cl)c(F)cc3C(=O)O)c(Cl)s1)C2"
meas_value = "98.840%"

[[record]]
line_notation = "Cc1cnn(-c2cccc(C(=O)O)c2)c1-c1ccc(Cl)c(F)c1"
meas_value = "105.860%"


----------
# experimental-target: Rat KMO (Rattus norvegicus, UniProt O88867)
# Construct: The GST-tagged full-length KMO (1-478) baculovirus vector contained a thrombin cleavage site; GST (thrombin cleavage site between GST and KMO) (N, cleaved yes); made in house; host or cells: Spodoptera frugiperda (Sf9), baculovirus
# Sequence (O88867 whole entry): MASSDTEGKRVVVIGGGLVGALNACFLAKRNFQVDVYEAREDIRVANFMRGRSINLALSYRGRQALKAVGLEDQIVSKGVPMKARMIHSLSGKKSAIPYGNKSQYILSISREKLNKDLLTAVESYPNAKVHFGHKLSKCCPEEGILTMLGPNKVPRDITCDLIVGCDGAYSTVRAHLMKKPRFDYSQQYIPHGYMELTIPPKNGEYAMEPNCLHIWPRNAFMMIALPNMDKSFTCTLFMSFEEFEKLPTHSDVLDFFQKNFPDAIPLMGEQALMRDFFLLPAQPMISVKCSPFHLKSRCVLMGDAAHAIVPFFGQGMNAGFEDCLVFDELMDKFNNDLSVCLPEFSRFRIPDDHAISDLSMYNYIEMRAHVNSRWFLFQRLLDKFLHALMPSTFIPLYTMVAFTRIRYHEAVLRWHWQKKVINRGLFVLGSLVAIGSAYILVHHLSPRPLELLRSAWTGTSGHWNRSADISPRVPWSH
# experiment: Rat KMO enzyme (cell-free) assay, NADPH consumption by absorbance
# Type: biochemical
# experimental-context: conc 0.3 μM, duplicates
property-name: inhibition rate, Rat-KMO cell-free assay (Figure 1B source data)

[[record]]
line_notation = "Cc1cnn(-c2ccc(OCc3ccccc3)c(C(=O)O)c2)c1-c1ccc(Cl)c(F)c1"
meas_value = "91.102%"

[[record]]
line_notation = "Cc1cnn(-c2cccc(C(=O)O)c2)c1-c1ccccc1"
meas_value = "35.882%"

[[record]]
line_notation = "COc1ccc2c(c1)CN(c1nc(C(=O)N(C)c3cc(Cl)c(F)cc3C(=O)O)c(Cl)s1)C2"
meas_value = "95.593%"

[[record]]
line_notation = "Cc1cnn(-c2cccc(C(=O)O)c2)c1-c1ccc(Cl)c(F)c1"
meas_value = "63.717%"


----------
# experimental-target: Rat KMO (Rattus norvegicus)
# Construct: The GST-tagged full-length KMO (1-478) baculovirus vector contained a thrombin cleavage site; GST (thrombin cleavage site between GST and KMO) (N, cleaved yes); made in house; host or cells: Spodoptera frugiperda (Sf9), baculovirus
# experiment: Rat KMO enzyme (cell-free) assay, NADPH consumption by absorbance
# Type: biochemical
# experimental-context: conc 0.1 μM, duplicates
property-name: inhibition rate, Rat-KMO cell-free assay (Figure 1B source data) (%)

[[record]]
molecule = "Cc1cnn(-c2ccc(OCc3ccccc3)c(C(=O)O)c2)c1-c1ccc(Cl)c(F)c1 [Compound 3]"
meas_value = 84.395

[[record]]
molecule = "Cc1cnn(-c2cccc(C(=O)O)c2)c1-c1ccc(Cl)c(F)c1 [Compound 2]"
meas_value = 47.122

[[record]]
molecule = "Cc1cnn(-c2cccc(C(=O)O)c2)c1-c1ccccc1 [Compound 1]"
meas_value = 19.657

[[record]]
molecule = "COc1ccc2c(c1)CN(c1nc(C(=O)N(C)c3cc(Cl)c(F)cc3C(=O)O)c(Cl)s1)C2 [Compound 4]"
meas_value = 80.975

